- System under test: T1, APBA1_2, Q02410
- T1 sequence (Q02410 742-832, limits assumed, looked up): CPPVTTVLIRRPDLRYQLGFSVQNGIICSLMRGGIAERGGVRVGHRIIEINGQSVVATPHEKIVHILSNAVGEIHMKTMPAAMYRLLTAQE
- Assay comment: holdup assay
- Parameters: key: below the threshold = too weak to quantify, mostly under pKd 3.1 to 4
- Condition set: plain residues with an end cap or a label only (N-terminal biotin on a linker: ado-ado)
pKd: recorded values
Quick one: just the number, no unit, thanks!

Binder	pKd
DSEEELPTRL [GRK6, P43250]	4.16
SRPHTNETSL [MCC, P23508]	3.59
SQDPKKPSRV [CBY2, Q8NA61]	3.97

// pKd lookup, key: HDDYFYHDEL [RCN2, Q14257]
3.98

The origin of these recorded values is paper PMC9482650.
